System: human PBMCs
Assay: Human PBMC cytokine response assay (IFN-γ and IFN-α in cell-free medium by ELISA), with or without cPLGA
Type: cell-based
Conditions: Example 58; 20 ug/ml; donor 3
Strand notation (5' to 3'): a small letter for the sugar, then the base; units joined by * are phosphorothioate-linked, units joined directly phosphodiester-linked; [ ] holds rarer units or linkages, { } end groups; capitals alone tell only the bases. d = 2'-deoxy (DNA)
Below: a set of entries, each annotated with reported IFN-α.
Number only, in pg/mL; omit the unit.

Example entries and their recorded answers appear below.
>>> reported_result("5′-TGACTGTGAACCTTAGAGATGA-3′ (SEQ ID NO: 3) (dT*dG*dA*dC*dT*dG*dT*dG*dA*dA*dC*dC*dT*dT*dA*dG*dA*dG*dA*dT*dG*dA) [Compound P-7, negative control, reference compound]")
52
>>> reported_result("(5′-TCGACGT-3′-HEG)2-glycerol-HEG-5′-TCGACGT-3′ [Compound C-101]")
215
>>> reported_result("5′-TCGAACGTTCGA-3′ (SEQ ID NO: 155) (listed as DNA, chemistry not fully specified) [Compound P-17, reference compound]")
52
>>> reported_result("(5′-TAGTCAT-3′-HEG)2-glycerol-HEG-5′-AACCTTC-3′ [Compound M-3, reference compound]")
52
>>> reported_result("(5′-TCGAACGTTCGA-3′ (SEQ ID NO: 155)-HEG)3-trebler-HEG-5′-T-3′ (three copies HEG-trebler branched, HEG-T, chemistry not fully specified) [Compound C-175]")
52
>>> reported_result("(5′-TCGAACGTTCGA-3′ (SEQ ID NO: 155)-HEG)2-glycerol-HEG-3′-AGCTTGCAAGCT-5′ (SEQ ID NO: 155) (DNA, all phosphorothioate, methylation of C not given here; Three DNA copies joined by HEG spacers and glycerol branching, one copy inverted) [Compound C-174]")
61

Next up:
Recorded result, (5′-TCGAACGTTCGA-3′ (SEQ ID NO: 155)-HEG)2-glycerol-HEG-5′-TCGAACGTTCGA-3′ (SEQ ID NO: 155) (three copies via HEG-glycerol branching, chemistry not fully specified) [Compound C-173] , IFN-α: 66
